- Test system: biotinyl-Met-oxazolone
- ASSAY OVERVIEW: self-aminoacylation, catalytic enhancement (BMO) (fold over background); higher = more active; k-Seq, kA / k0A0; sequences stand for … in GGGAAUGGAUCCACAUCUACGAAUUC…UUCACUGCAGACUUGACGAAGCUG
Variants at the floor of the assay were thinned out.
Measured self-aminoacylation, listed per entry for reference.
API note: the answer field is a bare number with no unit suffix.

Sample answers from the record:
UUUCACCUAGGUCAUCGGGCG [Fam2.2 aminoacylation ribozyme variant] : 4.77
AAGUUUGGUAACAGUCGCAAG [Fam3.1 aminoacylation ribozyme variant] : 0.994
CCACACUUCACGAAAUCGGUC [Fam1B.1 aminoacylation ribozyme variant] : 1.07

## Input Note down self-aminoacylation recorded for AAGUUUUCUAAUAGUCACAAG [Fam3.1 aminoacylation ribozyme variant]
## Output 1.25

## Input Using known records, supply self-aminoacylation for AUUAACCUGGUCAUCGCGUGA [Fam2.1 aminoacylation ribozyme variant]
## Output 17.2

## Input Look up and report measured self-aminoacylation for this entry: AAGUUAGCUAACAGUCGCAAG [Fam3.1 aminoacylation ribozyme variant]
## Output 2.31
